# Measured on: UniProtKB P05187
# Sequence (P05187 whole entry): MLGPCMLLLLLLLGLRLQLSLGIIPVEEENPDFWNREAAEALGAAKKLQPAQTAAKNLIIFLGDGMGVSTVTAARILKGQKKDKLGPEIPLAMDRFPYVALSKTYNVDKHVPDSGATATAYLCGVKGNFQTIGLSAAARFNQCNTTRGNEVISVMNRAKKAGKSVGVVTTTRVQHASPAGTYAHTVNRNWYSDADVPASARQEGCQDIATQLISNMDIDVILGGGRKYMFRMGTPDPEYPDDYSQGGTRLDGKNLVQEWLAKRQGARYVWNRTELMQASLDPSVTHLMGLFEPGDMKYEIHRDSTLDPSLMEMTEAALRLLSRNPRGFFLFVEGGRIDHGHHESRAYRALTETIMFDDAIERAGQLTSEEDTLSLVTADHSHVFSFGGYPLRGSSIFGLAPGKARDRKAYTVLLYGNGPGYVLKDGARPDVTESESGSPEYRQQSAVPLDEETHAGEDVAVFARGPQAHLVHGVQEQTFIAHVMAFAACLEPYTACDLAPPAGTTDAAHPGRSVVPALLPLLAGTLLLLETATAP
# Assay details: human placental alkaline phosphatase inhibition – biochemical, luminescence, confirmation (AID 1512)
# Format: functional
Active and inactive are the calls of the source. Rule as the data show it: actives have a measured IC50 and inactives only a lower limit.
Consider the following compounds; for each one, report its IC50.

Problem: Give UniProtKB P05187 IC50 for the following compound: `O=C(c1cc(-c2ccc(Cl)cc2Cl)n[nH]1)N1CCN(CCO)CC1`
Result: > 100 µM (inactive)

Problem: Give UniProtKB P05187 IC50 for the following compound: `COc1ccc(-c2nc3c4cnn(C)c4ncn3n2)cc1`
Result: > 100 µM (inactive)

Problem: # return IC50 for `NC(=O)c1ccc(-n2nnnc2SCC(=O)c2ccc(O)c(O)c2)cc1` , test system: UniProtKB P05187
Result: 1.76 µM (active)

Problem: Param request: IC50 | system UniProtKB P05187 | item `CCCCCCCCCCSc1nnc(NC(C)=O)[nH]1`
Result: > 100 µM (inactive)

Reference for the values: ChEMBL document CHEMBL1201862
